Values were extracted from the supplement of paper PMC9170038.

Reported apparent KD of MS2 coat protein by item:
tested on: MS2 coat protein; assay: apparent KD of MS2 coat protein; designed switch direction (-1 OFF switch, 1 ON switch): -1; higher = weaker reporter binding; conditions: input ligand: FMN 200 uM
Your answer is read as nM, so omit the unit and give the number.

ACGAUGACCGAAAAGUGUUAACUGACAUGAGGAUCACCCAUGUAGGAUAUGGCUACGAAAAGUAGUCAGAAGGACAUGUCAUCA [Omei Exc(NG) 3 Av7] (Eterna round: R96, puzzle: Exclusion NG 3); 17.8

Note: attention shifts to another entry.
QUERY: Fill in: apparent KD of MS2 coat protein of CCGAGGUAGCGGUCCUAUGACAUGAGGAUCACCCAUGUACCUCGCUACGAGCUUUUUGCUCGUCAUAUAAUUCUCGG [Mat - Sensor v3 - turn-off var 1 - JL Mod - D30] (Eterna round: R96, puzzle: Sensor v3, turn-off variant 1) is ___
RESULT: 56.8

* * *

system: MS2 coat protein; experiment: apparent KD of MS2 coat protein; designed switch direction (-1 OFF switch, 1 ON switch): -1; higher = weaker reporter binding; details: input ligand: none
Each entry gets false (0) if its apparent KD of MS2 coat protein stays under 50 nM, and true (1) if its apparent KD of MS2 coat protein is 50 nM or above.

Below, 5 sequences whose answers are already recorded.
UUAAAUCAUGUAGGAUAUGCUUUGCGAAGCGAGGCAGAAGGACAUGAGGAUCACCCAUGUGCUAGCGUCCGCGUACGGAUGCAA [Mat - Exclusion NG 1 - Mod of JL - D61] (Eterna round: R96, puzzle: Exclusion NG 1); true (1)
CAGUACUGAGGAUAUACAUGAGGAUCACCCAUGUCCCAAAAGUAGGAUACUACUAUUAGUAGAAGGCAGUACUG [Fiskers Ex 3 828 mod 25] (Eterna round: R96, puzzle: Exclusion 3); false (0)
CCAGCAAAUGUAAGGAUAUGCUGGUCCUUGGAUCAGCAGAAGGUACAUGAGGAUCACCCAUGUGUGAAAGCUGG [Eli bmx4 4.57] (Eterna round: R97, puzzle: Brourd's mod of Exclusion 4); true (1)
CUCGUGCAGCUUUGCUGUACGAGUACAUGAGGAUCACCCAUGUAGGAUAUGGUACGCUUUGCGUGCUAGAAGGAUAUGUGUAGG [JL EXNG3 1.38] (Eterna round: R96, puzzle: Exclusion NG 3); false (0)
GGAUCGAAUGUGAGGAUAUGCAGGUCCUUGGAUCUGCAGAAGGCACAUGAGGAUCACCCAUGUGAUCAAGAUCC [Mat - Exclusion 4 - Eli Mod - D48] (Eterna round: R97, puzzle: Brourd's mod of Exclusion 4); true (1)

QUERY: Does the reported apparent KD of MS2 coat protein for AACUUCUGAGGAUAUACAUAGAUUUACAUGAGGAUCACCCAUGUUCCUCUAUGUAUAAAUGUAGAAGGCAGAAGAU [Mat - Exclusion 5 - JL Mod - D62] (Eterna round: R97, puzzle: Exclusion 5) fall at or above the 50 nM mark?
RESULT: false (0)

QUERY: Next record, please: AUAAGAAAGGCAGGAUAUUGUGCACCCUAGUGACAAGAAGGGCCAGGGUGUGCGCUCCACAUGAGGAUCACCCAUGUUAGAAAG [Berimate] (Eterna round: R96, puzzle: Exclusion NG 1)
RESULT: false (0)

QUERY: Next record, please: GCAGCACAUGUAGGAUAUCUGCACGAUUAGUGCAGAGAAGGACAUGAGGAUCACCCAUGUAAUUAAGAUCAAUUAUUAAGCUGC [ENG1/3-C1] (Eterna round: R96, puzzle: Exclusion NG 1)
RESULT: false (0)

QUERY: Next record, please: ACGAUGACCGAAAAGUGUUAACUGACAUGAGGAUCACCCAUGUAGGAUAUGGCUACGAAAAGUAGUCAGAAGGACAUGUCAUCA [Omei Exc(NG) 3 Av7] (Eterna round: R96, puzzle: Exclusion NG 3)
RESULT: false (0)
